Some molecules, each annotated with its measured cell viability (kinase inhibitor library screening).
- System: 501Mel-GP cells (Dabrafenib-resistant)
- procedure summary: Kinase inhibitor library screening, PrestoBlue cell viability, 1 or 10 μM, 72 h
- settings: 501Mel GP, 1μΜ, 72 h
Where a name gives a salt, the structure may show the parent alone.
Answer in %, number only, no unit symbol.

Q: Supply cell viability (kinase inhibitor library screening) value. Item: "Cc1[nH]c(/C=C2\C(=O)Nc3ccc(S(=O)(=O)Cc4c(Cl)cccc4Cl)cc32)c(C)c1C(=O)N1CCC[C@@H]1CN1CCCC1"
Result: 86.9

Q: Look up and report measured cell viability (kinase inhibitor library screening) for this entry: "CO[C@@H](C(=O)N1Cc2n[nH]c(NC(=O)c3ccc(N4CCN(C)CC4)cc3)c2C1)c1ccccc1"
Result: 94.8

Q: Check the records and state cell viability (kinase inhibitor library screening) for CN1CC[C@H](c2c(O)cc(O)c3c(=O)cc(-c4ccccc4Cl)oc23)[C@H](O)C1 [Flavopiridol hydrochloride]
Result: 0.662

Source: paper PMC6364417
